Origin of values: paper PMC8007633

# measured.target: mushroom tyrosinase (Agaricus bisporus)
# Construct: purchased Sigma-Aldrich Co. LLC, St. Louis, MO, USA
# Sequence (C7FF04 1-392 limits assumed): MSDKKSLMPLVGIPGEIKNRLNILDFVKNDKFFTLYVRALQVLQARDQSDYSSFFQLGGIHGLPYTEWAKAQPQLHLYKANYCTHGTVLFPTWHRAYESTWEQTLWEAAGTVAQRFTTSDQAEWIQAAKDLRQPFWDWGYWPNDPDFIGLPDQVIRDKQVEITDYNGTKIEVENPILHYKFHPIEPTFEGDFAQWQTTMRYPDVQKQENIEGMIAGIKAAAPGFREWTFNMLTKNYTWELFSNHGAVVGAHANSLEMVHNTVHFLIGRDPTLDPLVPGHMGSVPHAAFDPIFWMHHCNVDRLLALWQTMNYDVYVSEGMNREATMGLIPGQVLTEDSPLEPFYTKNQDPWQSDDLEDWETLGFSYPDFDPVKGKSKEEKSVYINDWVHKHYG
# experiment: Diphenolase tyrosinase assay (enzymatic rate, L-dopa as substrate)
# Type: biochemical
Below, each entry is listed with its recorded IC50.

O=c1cc(-c2ccc(O)cc2)oc2c([C@@H]3O[C@H](CO)[C@@H](O)[C@H](O)[C@H]3O)c(O)cc(O)c12 | > 694 µM
O=C(O)c1ccc(O)cc1 [4-Hydroxybenzoic acid (6), 4-hydroxy benzoic acid] | 1870 µM

Problem: What value of measured IC50 is listed for O=c1c(O[C@@H]2O[C@H](CO)[C@@H](O)[C@H](O)[C@H]2O)c(-c2ccc(O)c(O)c2)oc2cc(O)cc(O)c12 ?
Result: > 646 µM
